Please respond with reported HDAC6 selectivity (fold) for every item in the list.
study system: human recombinant HDAC6 (Homo sapiens)
Construct: purchased Calbiochem 382180
Sequence (Q9UBN7 1-1215): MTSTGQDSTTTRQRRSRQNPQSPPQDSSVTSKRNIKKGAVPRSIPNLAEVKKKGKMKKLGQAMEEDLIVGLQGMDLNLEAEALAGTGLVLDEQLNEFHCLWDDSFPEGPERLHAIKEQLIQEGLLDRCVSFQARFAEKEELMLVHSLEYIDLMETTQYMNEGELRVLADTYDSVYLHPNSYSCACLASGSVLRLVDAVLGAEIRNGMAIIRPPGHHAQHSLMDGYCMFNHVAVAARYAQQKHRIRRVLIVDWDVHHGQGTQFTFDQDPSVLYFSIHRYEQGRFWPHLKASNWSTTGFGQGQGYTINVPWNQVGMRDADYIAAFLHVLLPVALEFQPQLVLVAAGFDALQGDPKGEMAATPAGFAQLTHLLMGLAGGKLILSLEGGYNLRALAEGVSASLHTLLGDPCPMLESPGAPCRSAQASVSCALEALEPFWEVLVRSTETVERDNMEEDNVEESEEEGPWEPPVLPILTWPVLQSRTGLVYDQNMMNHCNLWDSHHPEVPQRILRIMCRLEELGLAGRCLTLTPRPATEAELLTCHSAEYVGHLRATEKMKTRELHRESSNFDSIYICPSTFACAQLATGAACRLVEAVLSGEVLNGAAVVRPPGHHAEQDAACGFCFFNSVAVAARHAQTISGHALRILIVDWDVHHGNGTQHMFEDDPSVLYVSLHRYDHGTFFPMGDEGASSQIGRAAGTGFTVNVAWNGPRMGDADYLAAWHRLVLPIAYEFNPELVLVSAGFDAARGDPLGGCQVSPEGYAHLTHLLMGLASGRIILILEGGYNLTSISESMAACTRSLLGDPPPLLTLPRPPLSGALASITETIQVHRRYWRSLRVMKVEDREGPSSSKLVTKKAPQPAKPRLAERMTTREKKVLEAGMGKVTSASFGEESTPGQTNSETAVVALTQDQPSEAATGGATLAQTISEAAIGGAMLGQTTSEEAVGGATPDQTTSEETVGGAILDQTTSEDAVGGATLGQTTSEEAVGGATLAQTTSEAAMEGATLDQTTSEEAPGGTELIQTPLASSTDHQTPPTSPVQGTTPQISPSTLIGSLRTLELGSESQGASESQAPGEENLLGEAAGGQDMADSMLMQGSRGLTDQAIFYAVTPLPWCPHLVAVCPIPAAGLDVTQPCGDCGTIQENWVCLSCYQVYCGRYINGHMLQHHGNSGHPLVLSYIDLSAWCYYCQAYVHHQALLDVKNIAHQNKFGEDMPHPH
test method notes: HDAC6 enzyme activity inhibition assay (in vitro, fluorimetric)
Assay type: biochemical
recorded conditions: HDAC6 selectivity over HDAC1
Answers are plain numbers, in fold.

These recorded examples may help you get a feel for the data.
INSERT INTO assay_data (input_smiles, study_system, units_of_measure, recorded_result) VALUES
  ('CCN(CC)Cc1cccc(C(=O)N2[C@H](C)CN(Cc3ccc(C(=O)NO)cc3)C[C@@H]2C)c1', 'human recombinant HDAC6 (Homo sapiens)', 'fold', 17),
  ('C[C@@H]1CN(Cc2ccc(C(=O)NO)cc2)C[C@@H](C)N1Cc1ccccc1', 'human recombinant HDAC6 (Homo sapiens)', 'fold', 96),
  ('C[C@@H]1CN(CCCCCC(=O)NO)C[C@H](C)N1Cc1ccccc1', 'human recombinant HDAC6 (Homo sapiens)', 'fold', 44),
  ('C[C@@H]1CN(CCc2ccc(C(=O)NO)cc2)C[C@H](C)N1Cc1ccccc1', 'human recombinant HDAC6 (Homo sapiens)', 'fold', 15),
  ('C[C@@H]1CN(S(=O)(=O)c2ccc(Cl)cc2)C[C@H](C)N1Cc1ccc(C(=O)NO)cc1', 'human recombinant HDAC6 (Homo sapiens)', 'fold', 67);

Q: Form field: reported HDAC6 selectivity (fold) of C[C@@H]1CN(Cc2ccc(C(=O)NO)cc2)C[C@H](C)N1C(=O)Cc1cccc(C(F)(F)F)c1
Ans: 8
